Molecular target: Peroxiredoxin-2 (Homo sapiens, UniProt P32119)
Sequence (P32119 whole entry): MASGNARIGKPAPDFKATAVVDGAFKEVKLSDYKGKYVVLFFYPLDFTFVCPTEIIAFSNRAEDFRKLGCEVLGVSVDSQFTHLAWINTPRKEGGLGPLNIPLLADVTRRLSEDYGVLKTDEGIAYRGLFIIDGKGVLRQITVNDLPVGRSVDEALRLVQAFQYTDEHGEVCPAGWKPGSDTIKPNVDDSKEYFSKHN
Assay: Inhibition of recombinant PRDX2 (unknown origin) using H2O2 as substrate preincubated for 0.5 hrs followed by substrate addition by TRX-TrxR-NADPH coupling assay
pIC50: −log10 of the molar value.
OUTCOME MEASURE: pIC50

Would you kindly share the measured pIC50 for "COC(=O)C1(NC(=O)N[C@]2(C)CC[C@]3(C)CC[C@]4(C)C5=CC=C6C(=CC(=O)C(O)=C6C)[C@]5(C)CC[C@@]4(C)[C@@H]3C2)CCC1" ?
< 4.30

----------
Target: Peroxiredoxin-1 (Homo sapiens)
Sequence (Q06830 whole entry): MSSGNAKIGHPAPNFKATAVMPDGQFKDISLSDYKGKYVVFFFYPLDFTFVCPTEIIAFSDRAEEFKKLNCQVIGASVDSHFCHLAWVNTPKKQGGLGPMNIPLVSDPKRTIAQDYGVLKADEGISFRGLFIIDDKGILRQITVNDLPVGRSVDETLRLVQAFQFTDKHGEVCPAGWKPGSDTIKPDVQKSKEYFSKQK
Experiment: Inhibition of recombinant PRDX1 (unknown origin) using H2O2 as substrate preincubated for 0.5 hrs followed by substrate addition by TRX-TrxR-NADPH coupling assay
// boundary case: IC50 equal to 500 nM maps to no; strictly smaller maps to yes

Decide: IC50 of "COC(=O)C1(NC(=O)N[C@]2(C)CC[C@]3(C)CC[C@]4(C)C5=CC=C6C(=CC(=O)C(O)=C6C)[C@]5(C)CC[C@@]4(C)[C@@H]3C2)COC1" strictly below 500 nM?
yes

For this compound, is IC50 lower than 500 nM? "COC(=O)CNC(=O)N[C@]1(C)CC[C@]2(C)CC[C@]3(C)C4=CC=C5C(=CC(=O)C(O)=C5C)[C@]4(C)CC[C@@]3(C)[C@@H]2C1"
no

Is IC50 strictly under 500 nM for the entry "CC1=C(O)C(=O)C=C2C1=CC=C1[C@@]2(C)CC[C@@]2(C)[C@@H]3C[C@](C)(NC(=O)N[C@H]4CCOC4=O)CC[C@]3(C)CC[C@]12C" ?
yes

Report whether reported IC50 is lower than 500 nM (strictly) for "CC1=C(O)C(=O)C=C2C1=CC=C1[C@@]2(C)CC[C@@]2(C)[C@@H]3C[C@](C)(NC(=O)N[C@@H](C)C(N)=O)CC[C@]3(C)CC[C@]12C"
yes

Lab note: confirm whether the reported IC50 for this compound is below 500 nM, equality not counting. compound: "COC(=O)[C@@H](NC(=O)N[C@]1(C)CC[C@]2(C)CC[C@]3(C)C4=CC=C5C(=CC(=O)C(O)=C5C)[C@]4(C)CC[C@@]3(C)[C@@H]2C1)C(C)C"
yes

I wonder whether "COC(=O)[C@H](CCSC)NC(=O)N[C@]1(C)CC[C@]2(C)CC[C@]3(C)C4=CC=C5C(=CC(=O)C(O)=C5C)[C@]4(C)CC[C@@]3(C)[C@@H]2C1" has IC50 below 500 nM. Can you tell?
no

Please state whether IC50 is below 500 nM for "CC1=C(O)C(=O)C=C2C1=CC=C1[C@@]2(C)CC[C@@]2(C)[C@@H]3C[C@](C)(NC(=O)NC4(C(=O)O)COC4)CC[C@]3(C)CC[C@]12C"
no

Field: below-cutoff. Rule: recorded IC50 strictly less than 500 nM. Subject: "CC1=C(O)C(=O)C=C2C1=CC=C1[C@@]2(C)CC[C@@]2(C)[C@@H]3C[C@](C)(NC(=O)N[C@H]4C[C@H](CO)[C@H](O)C4)CC[C@]3(C)CC[C@]12C"
yes

IC50 strictly < 500 nM for this compound? "CC1=C(O)C(=O)C=C2C1=CC=C1[C@@]2(C)CC[C@@]2(C)[C@@H]3C[C@](C)(NC(=O)N[C@H](C)CO)CC[C@]3(C)CC[C@]12C"
no
